// provenance: ChEMBL document CHEMBL4138231

Provide the reported GI50 of each item.
Tested on: NCI-H1975
Experiment: Antiproliferative activity against human NCI-H1975 cells after 72 hrs by CCK8 assay
Assay type: functional
Details: NCI-H1975, 72 h
The answer is to be given in µM; state only the numeric part.

Asked: Item under review: CC[C@@H]1C(=O)N(C)c2cnc(-n3ccc4cc(C(N)=O)ccc43)nc2N1C1CCCC1 . Reported GI50?
Given back: 3.38

Asked: For the compound shown here, CCC1C(=O)N(C)c2cnc(-n3ccc4cc(C(=O)NC(C)C)ccc43)nc2N1c1ccn(C)n1 (racemic) , give the reported GI50.
Given back: 12.2

Asked: Look up GI50: CCC1C(=O)N(C)c2cnc(Nc3ccc(S(=O)(=O)NCCCO)cc3)nc2N1c1ccn(C)n1 (racemic)
Given back: 25.8

Asked: Any idea what its GI50 is? The compound is CC[C@@H]1C(=O)N(C)c2cnc(-n3ccc4ccccc43)nc2N1C1CCCC1
Given back: 28.3

Asked: Given the compound CCCCNS(=O)(=O)c1ccc(Nc2ncc3c(n2)N(C2CCCC2)[C@H](CC)C(=O)N3C)cc1 , what is its reported GI50?
Given back: 1.61

Asked: Could you tell me which GI50 is on file for CC[C@@H]1C(=O)N(C)c2cnc(Nc3ccc(S(N)(=O)=O)cc3)nc2N1C1CCCC1 ?
Given back: 5.29

Asked: Request the reported GI50 associated with CC[C@@H]1C(=O)N(C)c2cnc(Nc3ccc(S(=O)(=O)NCC(C)C)cc3)nc2N1C1CCCC1
Given back: 1.04

Asked: # GI50 lookup, item CCCNS(=O)(=O)c1ccc(Nc2ncc3c(n2)N(c2ccn(C)n2)C(CC)C(=O)N3C)cc1 (racemic)
Given back: 21.7

Asked: Would you kindly share the measured GI50 for CC[C@@H]1C(=O)N(C)c2cnc(-n3ccc4cc(F)ccc43)nc2N1C1CCCC1 ?
Given back: 46.5

Asked: Quick one: GI50 of CC[C@@H]1C(=O)N(C)c2cnc(Nc3ccc(S(=O)(=O)NC)cc3)nc2N1C1CCCC1 ?
Given back: 1.41

Asked: Give the measured GI50 of CC[C@@H]1C(=O)N(C)c2cnc(-n3ccc4cc(C(=O)NC5CCCC5)ccc43)nc2N1C1CCCC1 .
Given back: 0.856

Asked: Query: GI50; subject: CCC1C(=O)N(C)c2cnc(-n3ccc4cc(F)ccc43)nc2N1c1ccn(C)n1 (racemic)
Given back: 28.6

Asked: Return reported GI50; argument: CC[C@@H]1C(=O)N(C)c2cnc(-n3ccc4cc(C(=O)NC)ccc43)nc2N1C1CCCC1
Given back: 1.37

Asked: Item CC[C@@H]1C(=O)N(C)c2cnc(Nc3ccc(S(=O)(=O)NCCO)cc3)nc2N1C1CCCC1 has what recorded GI50?
Given back: 2.1

Asked: Any idea what its GI50 is? The compound is CCNC(=O)c1ccc2c(ccn2-c2ncc3c(n2)N(C2CCCC2)[C@H](CC)C(=O)N3C)c1
Given back: 0.882

Asked: Looking for the measured GI50 of CCCCNC(=O)c1ccc2c(ccn2-c2ncc3c(n2)N(c2ccn(C)n2)C(CC)C(=O)N3C)c1 (racemic) , can you help?
Given back: 12

Asked: Any idea what GI50 was measured for CC[C@@H]1C(=O)N(C)c2cnc(Nc3ccc(C(=O)NC4CCN(C)CC4)cc3OC)nc2N1C1CCCC1 [BI-2536] ?
Given back: 0.23

----------
Target: Serine/threonine-protein kinase PLK2 (Homo sapiens, UniProt Q9NYY3)
Sequence (Q9NYY3 whole entry): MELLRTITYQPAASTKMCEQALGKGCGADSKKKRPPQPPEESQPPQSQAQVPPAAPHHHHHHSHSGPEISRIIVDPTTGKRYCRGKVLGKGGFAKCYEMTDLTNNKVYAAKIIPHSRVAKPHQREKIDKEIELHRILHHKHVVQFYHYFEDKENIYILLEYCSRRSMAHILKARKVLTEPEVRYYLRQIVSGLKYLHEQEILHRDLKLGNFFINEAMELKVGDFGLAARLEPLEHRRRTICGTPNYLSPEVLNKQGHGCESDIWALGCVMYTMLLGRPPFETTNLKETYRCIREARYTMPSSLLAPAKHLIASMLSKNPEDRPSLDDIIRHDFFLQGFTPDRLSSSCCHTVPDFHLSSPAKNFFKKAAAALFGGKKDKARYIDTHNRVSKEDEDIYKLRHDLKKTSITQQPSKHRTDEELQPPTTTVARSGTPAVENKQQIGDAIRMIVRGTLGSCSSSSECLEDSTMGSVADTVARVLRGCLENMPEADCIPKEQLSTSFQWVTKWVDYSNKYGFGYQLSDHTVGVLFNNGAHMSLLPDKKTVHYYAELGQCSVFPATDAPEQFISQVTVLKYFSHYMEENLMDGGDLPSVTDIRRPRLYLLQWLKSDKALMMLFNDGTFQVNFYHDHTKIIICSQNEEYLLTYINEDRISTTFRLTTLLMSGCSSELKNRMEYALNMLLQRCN
Assay: Inhibition human recombinant full length GST-tagged Plk2 expressed in baculovirus expression system after 1 hr by FRET-based Z'-Lyte assay
Can you tell me pIC50 for the items I'm about to list?
Interpret pIC50 as the negative base-10 log of the concentration measured in mol/L.

Asked: Bench note: what pIC50 did CCC1C(=O)N(C)c2cnc(-n3ccc4cc(C(=O)NC5CCCC5)ccc43)nc2N1c1ccn(C)n1 (racemic) show?
Given back: 7.04

Asked: // pIC50 lookup, key: CCC1C(=O)N(C)c2cnc(-n3ccc4cc(C(N)=O)ccc43)nc2N1c1ccn(C)n1 (racemic)
Given back: 6.42

Asked: Would you mind telling me what pIC50 value was observed for CCNC(=O)c1ccc2c(ccn2-c2ncc3c(n2)N(C2CCCC2)[C@H](CC)C(=O)N3C)c1 ?
Given back: 8.31

Asked: Which value of pIC50 has been reported for CCC1C(=O)N(C)c2cnc(-n3ccc4cc(C(=O)NC)ccc43)nc2N1c1ccn(C)n1 (racemic) in the records?
Given back: 6.66

----------
Target: Serine/threonine-protein kinase PLK3 (Homo sapiens)
Sequence (Q9H4B4 whole entry, the tested form may be a part): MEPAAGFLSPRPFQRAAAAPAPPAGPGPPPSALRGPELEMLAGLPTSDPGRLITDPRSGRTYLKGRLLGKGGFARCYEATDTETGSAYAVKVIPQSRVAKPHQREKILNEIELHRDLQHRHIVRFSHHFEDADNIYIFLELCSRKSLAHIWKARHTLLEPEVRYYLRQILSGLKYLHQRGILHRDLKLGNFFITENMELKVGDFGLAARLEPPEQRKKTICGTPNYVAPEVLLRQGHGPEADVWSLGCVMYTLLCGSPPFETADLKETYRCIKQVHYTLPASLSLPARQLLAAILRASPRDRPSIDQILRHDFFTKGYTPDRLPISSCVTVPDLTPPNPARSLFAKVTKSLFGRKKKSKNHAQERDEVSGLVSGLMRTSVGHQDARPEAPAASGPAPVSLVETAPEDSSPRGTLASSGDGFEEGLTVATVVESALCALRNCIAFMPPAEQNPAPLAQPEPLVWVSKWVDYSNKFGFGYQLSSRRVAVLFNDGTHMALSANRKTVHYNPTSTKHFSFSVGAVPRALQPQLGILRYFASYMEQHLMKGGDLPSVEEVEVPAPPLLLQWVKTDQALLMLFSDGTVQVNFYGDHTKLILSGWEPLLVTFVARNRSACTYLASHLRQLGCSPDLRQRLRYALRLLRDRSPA
Experiment: Inhibition human recombinant GST-tagged Plk3 catalytic domain (58 to 340 residues) expressed in baculovirus expression system after 1 hr by FRET-based Z'-Lyte assay
Experimental Readout: IC50

Asked: Recall the recorded IC50 for CCNC(=O)c1ccc2c(ccn2-c2ncc3c(n2)N(c2ccn(C)n2)C(CC)C(=O)N3C)c1 (racemic) with Serine/threonine-protein kinase PLK3 (Homo sapiens) and state it.
Given back: > 10 µM

Asked: State its IC50 on Serine/threonine-protein kinase PLK3 (Homo sapiens): CCC1C(=O)N(C)c2cnc(-n3ccc4cc(F)ccc43)nc2N1c1ccn(C)n1 (racemic)
Given back: > 10 µM

Asked: What reported IC50 corresponds to CCC1C(=O)N(C)c2cnc(-n3ccc4cc(C(N)=O)ccc43)nc2N1c1ccn(C)n1 (racemic) on Serine/threonine-protein kinase PLK3 (Homo sapiens)?
Given back: > 10 µM

Asked: Request - read-out IC50 | tested on Serine/threonine-protein kinase PLK3 (Homo sapiens) | molecule CC[C@@H]1C(=O)N(C)c2cnc(-n3ccc4ccccc43)nc2N1C1CCCC1
Given back: > 20 µM

Asked: Observed IC50 on Serine/threonine-protein kinase PLK3 (Homo sapiens) for CCCCNC(=O)c1ccc2c(ccn2-c2ncc3c(n2)N(c2ccn(C)n2)C(CC)C(=O)N3C)c1 (racemic) , please.
Given back: > 10 µM

Asked: Record lookup: for Serine/threonine-protein kinase PLK3 (Homo sapiens), what IC50 belongs to CCC1C(=O)N(C)c2cnc(-n3ccc4cc(C(=O)NCC(C)C)ccc43)nc2N1c1ccn(C)n1 (racemic) ?
Given back: > 10 µM

Asked: Request body: readout IC50, system Serine/threonine-protein kinase PLK3 (Homo sapiens), query CC[C@@H]1C(=O)N(C)c2cnc(-n3ccc4cc(C(=O)NC5CCCC5)ccc43)nc2N1C1CCCC1 . Return the value.
Given back: > 20 µM

Asked: Recall the recorded IC50 for CCC1C(=O)N(C)c2cnc(-n3ccc4cc(C(=O)NC)ccc43)nc2N1c1ccn(C)n1 (racemic) with Serine/threonine-protein kinase PLK3 (Homo sapiens) and state it.
Given back: > 10 µM

----------
Biological target: Serine/threonine-protein kinase PLK2 (Homo sapiens, UniProt Q9NYY3)
Experiment: Inhibition human recombinant full length GST-tagged Plk2 expressed in baculovirus expression system after 1 hr by FRET-based Z'-Lyte assay
Exercise: for every item that follows, state its recorded pIC50.
Please note pIC50 is a logarithmic value: minus log10 of concentration in mol/L. Answer with that number alone.

Asked: State the recorded pIC50 for this entry: CC[C@@H]1C(=O)N(C)c2cnc(Nc3ccc(S(=O)(=O)NC)cc3)nc2N1C1CCCC1
Given back: 8.47

Asked: Query: pIC50; subject: CC[C@@H]1C(=O)N(C)c2cnc(-n3ccc4cc(C(=O)NC5CCCC5)ccc43)nc2N1C1CCCC1
Given back: 8.15

Asked: Given CC[C@@H]1C(=O)N(C)c2cnc(-n3ccc4cc(C(N)=O)ccc43)nc2N1C1CCCC1 , state its recorded pIC50.
Given back: 7.55

Asked: Recorded pIC50 of CC[C@@H]1C(=O)N(C)c2cnc(Nc3ccc(S(=O)(=O)Nc4ccccc4)cc3)nc2N1C1CCCC1 , please.
Given back: 7.26

Asked: Tell me the measured pIC50 of CC[C@@H]1C(=O)N(C)c2cnc(-n3ccc4cc(C(=O)NC)ccc43)nc2N1C1CCCC1 , please.
Given back: 8.07

----------
Tested on: NCI-H1975
Experiment: Antiproliferative activity against human NCI-H1975 cells after 72 hrs by CCK8 assay
Format: functional
Conditions: NCI-H1975, 72 h
Experimental Readout: log10 GI50 (log10 of the value in µM)
Note: values are log10 of GI50 expressed in µM.

Asked: Quick check: log10 GI50 of CCC1C(=O)N(C)c2cnc(-n3ccc4cc(C(=O)NCC(C)C)ccc43)nc2N1c1ccn(C)n1 (racemic) ?
Given back: 1.01

Asked: Quick one: log10 GI50 for CCCCNS(=O)(=O)c1ccc(Nc2ncc3c(n2)N(c2ccn(C)n2)C(CC)C(=O)N3C)cc1 (racemic) ?
Given back: 0.61

Asked: Which value of log10 GI50 has been reported for CC[C@@H]1C(=O)N(C)c2cnc(Nc3ccc(S(=O)(=O)NC4CCCC4)cc3)nc2N1C1CCCC1 in the records?
Given back: 0.23

Asked: // query log10 GI50 value for entry CCCNS(=O)(=O)c1ccc(Nc2ncc3c(n2)N(C2CCCC2)[C@H](CC)C(=O)N3C)cc1
Given back: 0.32

Asked: What value of log10 GI50 has been reported for the following compound? CCC1C(=O)N(C)c2cnc(-n3ccc4cc(C(=O)NC)ccc43)nc2N1c1ccn(C)n1 (racemic)
Given back: 1.55
